Biological target: human CRHR1 (Homo sapiens, UniProt P34998)
Construct: expressed in transfected cells
Sequence (P34998 24-415): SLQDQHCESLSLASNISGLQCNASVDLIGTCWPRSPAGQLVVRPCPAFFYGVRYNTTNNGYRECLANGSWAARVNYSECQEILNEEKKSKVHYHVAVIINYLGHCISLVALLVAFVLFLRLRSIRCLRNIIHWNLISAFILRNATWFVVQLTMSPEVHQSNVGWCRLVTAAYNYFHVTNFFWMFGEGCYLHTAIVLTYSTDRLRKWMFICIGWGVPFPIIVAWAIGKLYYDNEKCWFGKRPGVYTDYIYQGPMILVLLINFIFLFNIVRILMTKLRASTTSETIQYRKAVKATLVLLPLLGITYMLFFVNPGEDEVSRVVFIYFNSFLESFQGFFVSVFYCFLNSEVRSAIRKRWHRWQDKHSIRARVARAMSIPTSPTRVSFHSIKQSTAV
Assay: Human CRHR1 cAMP assay (HTRF) in HEK293 cells stably expressing human CRHR1
Format: cell-based
Conditions: HEK293 cells overexpressing human CRHR1; relative EC50, maximum 66 nM human UCN1; mean ± SE; read-out: hCRHR1 cAMP EC50 (pM, ± SE)
*1 amine or outer side, *2 acyl side, *3 side chain or, on linkers, in order; H or OH if unused. Bridges are numbered along the chain shown (N, C = ends). Roman numbers before positions name the chains, in order. Side-chain parts run from the residue outwards. [ ]: non-standard residue; d: D form. The star is where a group is joined. C20 diacid = O=C(O)CCCCCCCCCCCCCCCCCCC(=O)*; γGlu = O=C(O)[C@H](CCC(=O)[*:2])N[*:1]; εLys = N[C@@H](CCCCN[*:1])C(=O)[*:2]; αMeL = CC(C)C[C@](C)(N)C(=O)O; AEEA = NCCOCCOCC(=O)O; Aib = CC(C)(N)C(=O)O; Ahx = NCCCCCC(=O)O
parameter: EC50

INPUT: Item under review: I: Ac-GSPSIVTS[αMeL]DVPT[Aib][αMeL]LQKILEQERAEKARQQAKEAAEILAQV-NH2 / II: {C20 diacid-γGlu}-EKEKEK[AEEA] (amide I:33-II:C) [SEQ ID NO: 9] . Reported EC50?
OUTPUT: > 1e+07 pM

INPUT: Let us now turn to Ac-PPPIVTS[αMeL]DVPT[Aib][αMeL]LQKLLEQERAEKARQQAK([γGlu-AEEA-εLys-C20 diacid])EAAEILAQV-NH2 [SEQ ID NO: 48]
OUTPUT: > 1e+07 pM

INPUT: Let us now turn to Ac-GSPSIVTS[αMeL]DVPT[Aib][αMeL]LQKILEQERAEKARQQAK([AEEA-Pro-Lys-Glu-γGlu-C20 diacid])EAAEILAQV-NH2 [SEQ ID NO: 3]
OUTPUT: > 1e+07 pM

INPUT: Let us now turn to Ac-GSPSIVTS[αMeL]DVPT[Aib][αMeL]LQKILEQERAEKARQQAK([γGlu-Pro-Lys-Glu-Ahx-C20 diacid])EAAEILAQV-NH2 [SEQ ID NO: 11]
OUTPUT: > 1e+07 pM

INPUT: Let us now turn to Ac-PPPIVTS[αMeL]D[dV]PT[Aib][αMeL]LQK[Aib]LEQERAEKARQQAK([γGlu-AEEA-εLys-C20 diacid])ENTEILAQV-NH2 [SEQ ID NO: 46]
OUTPUT: > 1e+07 pM

INPUT: Let us now turn to {C20 diacid}-K[AEEA][γGlu]GSPSIVTS[αMeL]DVPT[Aib][αMeL]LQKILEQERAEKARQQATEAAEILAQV-NH2 [SEQ ID NO: 26]
OUTPUT: > 1e+07 pM
